Test system: differentiated 3T3-L1 mouse adipocyte cells
experimental.protocol: Adipocyte glucose consumption in differentiated 3T3-L1 mouse adipocyte cells (loss of glucose from medium, colorimetric)
Format: cell-based
settings: compound 10 μM, 22 to 24 hours, differentiated 3T3-L1 adipocytes, compound/DMSO, read-out: Glucose consumption (fold change) Mean
test.readout: fold induction at 10 µM

Here is how some compounds turned out for fold induction at 10 µM.
                                   compound                              assay_target  reported_value
0  CCCCCCC1CCCc2c(n(Cc3cccc(F)c3)c3c(C(=O)O)cccc23)C1 (stereo not shown)  differentiated 3T3-L1 mouse adipocyte cells            1.14
1  CCCC1CCc2c1n(Cc1cccc(C#N)c1)c1c(C(=O)O)cccc21 (stereo not shown)  differentiated 3T3-L1 mouse adipocyte cells            1.38
2  CCCCC1CCCc2c(n(Cc3cccc(F)c3)c3c(C(=O)O)cccc23)C1 (stereo not shown)  differentiated 3T3-L1 mouse adipocyte cells            1.12
3  CCCCC1CCCc2c(n(Cc3cccc(Cl)c3)c3c(C(=O)O)cccc23)C1 (stereo not shown)  differentiated 3T3-L1 mouse adipocyte cells            1.18
4  CCCCCCC1CCCc2c(n(Cc3cccc(C#N)c3)c3c(C(=O)O)cc(F)cc23)C1 (stereo not shown)  differentiated 3T3-L1 mouse adipocyte cells            1.33
5  N#Cc1cccc(Cn2c3c(c4cccc(C(=O)O)c42)CCCC(CCc2ccccc2)C3)c1 (stereo not shown)  differentiated 3T3-L1 mouse adipocyte cells            1.02

Your task in this section: give fold induction at 10 µM for each listed record.
1. CCCCCCC1CCCc2c(n(Cc3cccnc3)c3c(C(=O)O)cccc23)C1 (stereo not shown)
2. CCC1CCc2c1n(Cc1cccc(C#N)c1)c1c(C(=O)O)cccc21 (stereo not shown)
3. CCCCCCC1CCc2c(n(Cc3cccc(C(N)=O)c3)c3c(C(=O)O)cccc23)C1 (stereo not shown)
4. CCC1CCCc2c(n(Cc3cccc(C(N)=O)c3)c3c(C(=O)O)cccc23)C1 (stereo not shown)

Result:
1. 1.14
2. 1.12
3. 1.13
4. 0.96
